- Test system: HEK-293T
- Protocol Description: Multiplex assay against HEK293T
- Assay type: toxicity, cell-based
- Test Conditions: human, 24 h, 10 µM, compound concentration 10 uM, replicate 2
Give y when the value for Population Pyknosed Nuclei (%) is at least 10%. Give n when it is less.

Sample answers from the record:
CC(C)(C)c1ccc(CSc2cnn(C(C)(C)C)c(=O)c2Cl)cc1 :: y
Nc1nc(CC(=O)Nc2ccc(CCNC[C@H](O)c3ccccc3)cc2)cs1 :: n
COc1cc2nc(N3CCN(C(=O)COc4c(OC)cccc4C(C)C)CC3)nc(N)c2cc1OC.Cl.Cl :: y
Cc1ccc(OCC(O)C(C)NC(C)C)c2c1CCC2.Cl (stereo not drawn) :: y
O=C(NCCNCC(O)COc1ccc(O)cc1)N1CCOCC1.O=C(NCCNCC(O)COc1ccc(O)cc1)N1CCOCC1.O=C(O)/C=C/C(=O)O (stereo not drawn) [XAMOTEROL FUMARATE] :: n

Please look at the following compound next.
input: For this compound, is measured Population Pyknosed Nuclei (%) 10% or higher? `Cc1cc(=O)n(C)c2cc(N3C(=O)CC[C@H](NS(=O)(=O)CC(C)C)[C@H]3c3ccc(Cl)cc3)ccc12`
output: y

---

- System: U2OS
- Protocol Description: Multiplex assay against U2OS
- Assay type: toxicity, cell-based
- Test Conditions: human, 48 h, 10 µM, compound concentration 10 uM, replicate 2
Entries whose Population Healthy Nuclei (%) is below 70% take yes (1); entries at or above 70% take no (0).

Sample answers from the record:
CCC(=O)OCC(=O)[C@@]1(OC(=O)CC)[C@@H](C)C[C@H]2[C@@H]3CCC4=CC(=O)C=C[C@]4(C)[C@@]3(Cl)[C@@H](O)C[C@@]21C [BECLOMETHASONE DIPROPIONATE] :: yes (1)
Cn1cc(C(=O)OCC2CCN(CCNS(C)(=O)=O)CC2)c2ccccc21 :: no (0)
CCCCC[C@H](O)/C=C/[C@H]1[C@H](O)CC(=O)[C@@H]1CCCCCCC(=O)O :: no (0)

Please look at the following compound next.
input: Lab log: compare recorded Population Healthy Nuclei (%) with 70%; is it strictly lower for `S=C(NCCCc1c[nH]cn1)NCCCN(Cc1ccc(Cl)c(Cl)c1)c1ccc(Br)cn1` ?
output: yes (1)

---

- Tested on: Fibroblast
- Protocol Description: Multiplex assay against human fibroblast
- Assay type: toxicity, cell-based
- Test Conditions: 24 h, 10 µM, compound concentration 10 uM, replicate 1
// Population Pyknosed Nuclei (%) lookup, one value per entry
Write the number in % without appending the unit.

Known results for molecules:
Cc1cc(NC(=O)NCCN2CCC(O)(Cc3ccccc3)CC2)c2ccccc2n1 :: 8
CCn1c(-c2nc3cc(C(=O)N4CCCC(N)C4)ccc3n2C)cc2ccccc21.Cl (centres undefined) :: 10
COc1cc2nc(N3CCN(C(=O)c4ccco4)CC3)nc(N)c2cc1OC.Cl [PRAZOSIN HYDROCHLORIDE] :: 6
Cc1cc(-c2ccc3c(c2)CC[C@H]3N2CC3(CCN(C(=O)Cc4cn5cc(C)sc5n4)CC3)C2)ncn1 :: 16
COc1cc(C(=O)N2CC[C@@H](O)[C@@H](N)C2)cc2nc(-c3cc4ccccc4n3CC3CC3)n(C)c12.Cl :: 16
COCCCN1CCC(NC(=O)c2cc(Cl)c(N)c3c2OCC3)CC1 [PRUCALOPRIDE] :: 15

input: So what Population Pyknosed Nuclei (%) did `Cn1cc(C(=O)OCC2CCN(CCNS(C)(=O)=O)CC2)c2ccccc21` get with Fibroblast?
output: 13

input: So what Population Pyknosed Nuclei (%) did `O=C(Nc1cc(-c2ccccc2)nn1-c1ccccc1F)c1ccc([N+](=O)[O-])cc1` get with Fibroblast?
output: 16

input: So what Population Pyknosed Nuclei (%) did O=C(O)CCC/C=C\CC1C(O)CC(O)C1/C=C/C(O)COc1cccc(Cl)c1 (centres undefined) get with Fibroblast?
output: 18

input: So what Population Pyknosed Nuclei (%) did `Cc1cc(O)c(-c2ccc([C@@H](C)CN(C)C)cc2)c2c1[nH]c(=O)c1sccc12` get with Fibroblast?
output: 22

input: So what Population Pyknosed Nuclei (%) did `Cc1sc2c(c1C)C(c1ccc(Cl)cc1)=N[C@H](CC(=O)OC(C)(C)C)c1nnc(C)n1-2` get with Fibroblast?
output: 14

input: So what Population Pyknosed Nuclei (%) did `CC(C)(O)C(=O)N1CCN(c2ccc(C(F)(F)F)c(C3=C(c4c[nH]c5ccccc45)C(=O)NC3=O)c2)CC1` get with Fibroblast?
output: 34

input: So what Population Pyknosed Nuclei (%) did `C[C@@H]1CC(=O)Nc2cccc(-c3ccc4c(c3)c(-c3cnn(C)c3)nn4C)c2N1` get with Fibroblast?
output: 11

input: So what Population Pyknosed Nuclei (%) did `Cc1cc(=O)n(C)c2cc(N3C(=O)CC[C@H](NS(=O)(=O)CC(C)C)[C@H]3c3ccc(Cl)cc3)ccc12` get with Fibroblast?
output: 39
